Target: T1, human PCSK9 (proprotein convertase subtilisin kexin type 9) (human, UniProt Q8NBP7 31-692)
T1 construct: immobilized directly (ProteOn), biotinylated (Octet) or in solution, according to the assay; also called hPCSK9; PCSK9-AF647 (labelled form)
Assay: PCSK9:EGFA FRET, competitor EGFA peptide
pEC50: −log10 of the molar value.
Each entry below carries its recorded pEC50.

| Binder | pEC50 |
| --- | --- |
| 2451B05 (designed binder) MGVSDVPRDLEVVAATPTSLLISWDAPAGGYGYYRITYGETGGNSPVQEFTVPSSKGTATISGLKPGVDYTITVYAVEFDYPGSGYYHRPISINYRTEIDKPSQHHHHHH | 8.20 |
| 2451G01 (designed binder) MGVSDVPRDLEVVAATPTSLLISWDAPAGGYGYYRITYGETGGNSPVQEFTVPSSKGTATISGLKPGVDYTITVYAVEFDFPGSGYYHRPISINYRTEIDKPSQHHHHHH | 8.42 |
| 2451C11 (designed binder) MGIVDVPRDLEVVAATPTSLLISWDPPAGAYGYYRITYGETGGNSPKQQFTVPGYKGTATISGLKPGVDYTITVYAVEYPYDHSGYYHRPISINYRTEIDKPSQHHHHHH | 8.01 |
| 2382A01 (designed binder) MGVSDVPRDLEVVAATPTSLLISWAAPAGGGYGYYRITYGETGGNSPVQEFTVPVSKGTATISGLKPGVDYTITVYAVEYDFPGAGYYHRPISINYRTEIDKPSQHHHHHH | 7.89 |
